TEST_DESCRIPTION: Bmi1 luciferase reporter increase in mESCs, primary screen, esBAF inhibitor project, mouse ES cells, Bmi1 luciferase knock-in, single point (AID 602393);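 further: 0% = median of the plate's neutral control wells and 100% = double that signal; a rise in the Bmi1 reporter signal indicates esBAF inhibition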
SETTINGS: 24 h, at 12.5 µM, hits give high values, 100% = twice the neutral-well signal
Out of some 350,000 compounds screened, about 7,000 (2%) were called active. The list comes from a sample in which actives are over-represented; it also holds close analogues and randomly drawn compounds.
Catalogue of reporter increase values
Kindly answer with a numeric value in %, unit omitted.

Reference set, count: 8
N#C[C@H]1[C@@H](c2ccc(C3=CCCCC3)cc2)[C@@H](CO)N1C(=O)NC1CCCCC1; 7.57
COc1cc(C(=O)NCC2(c3ccccc3)CCCC2)ccc1OC(C)C; -10.2
CC(C)NC(=O)Nc1ccc2c(c1)C(=O)N(C)[C@@H]1CC[C@H](CC(=O)NCC3CCCCC3)O[C@@H]1CO2; 7.05
Cc1cccc(C(=O)Nc2ccc(C(=O)N/N=C/c3cccc(C)n3)cc2)c1; 14.2
CC(C)C1CCN(C(=O)C2CCC(=O)N(C3CCCCCC3)C2)CC1 (stereo unspecified); 55.6
O=C(Cc1ccccn1)N[C@H]1CC[C@H](CCNS(=O)(=O)c2cccc(F)c2)O[C@@H]1CO; 0.895
O=C(c1cccs1)N1CCCC(c2nc(-c3ccc(F)cc3)no2)C1 (stereo unspecified); 51.6
Cc1noc(C)c1S(=O)(=O)Nc1ccc2c(c1)C(=O)N([C@H](C)CO)C[C@@H](C)[C@@H](CN(C)Cc1ccccc1)OCCCC[C@@H](C)O2; 3.09

Problem: Item under review: `COc1ccc(C(=O)Nc2ccc3c(c2)OCO3)cc1OC` . Reported reporter increase?
Result: 53.2

Problem: Item under review: `Cc1cccc(S(=O)(=O)N2CC[C@@H]3[C@H]2c2cc(C#Cc4ccc(F)cc4)ccc2N[C@@H]3CO)c1` . Reported reporter increase?
Result: 1.22

Problem: Item under review: `CCC(=O)N1C[C@@H](C)[C@H](OC)CN(C)C(=O)c2ccc(NC(=O)Nc3ccccc3)cc2OC[C@@H]1C` . Reported reporter increase?
Result: -0.74

Problem: Item under review: CCOC(=O)C1(C)CCCN(C(=O)c2cccc(Cl)c2)C1 (stereo unspecified) . Reported reporter increase?
Result: -1.3

Problem: Item under review: O=C(C1CCC(=O)N(C2CC2)C1)N1CCN(c2ccc(Cl)cc2)CC1 (stereo unspecified) . Reported reporter increase?
Result: -7.88

---

TEST_DESCRIPTION: Bmi1 luciferase reporter increase in mESCs, primary screen, esBAF inhibitor project, mouse ES cells, Bmi1 luciferase knock-in, single point (AID 602393);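 further: 0% = median of the plate's neutral control wells and 100% = double that signal; a rise in the Bmi1 reporter signal indicates esBAF inhibition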
SETTINGS: 24 h, at 12.5 µM, hits give high values, 100% = twice the neutral-well signal
Among all 350,000 compounds or so, about 7,000 (2%) were called active. Shown is part of a subset that was picked to be rich in actives.
Catalogue of reporter increase values
Kindly answer with a numeric value in %, unit omitted.

O=C(CCNC(=O)c1ccccc1Cl)NCc1ccco1; -4.58
C/C=C/c1ccc([C@H]2[C@@H](CO)N(C(=O)CC)[C@H]2CN(C)C(=O)C2CC2)cc1; 5.87
COc1ccc(NC(=O)Nc2ccc3c(c2)C(=O)N([C@@H](C)CO)C[C@@H](C)[C@@H](CN(C)C(=O)Nc2ccc(F)cc2)OCCCC[C@@H](C)O3)cc1; 4.33

Turning to the following compound.
Problem: Item under review: `C[C@@H]1CN([C@@H](C)CO)C(=O)c2cc(NC(=O)Nc3ccc4c(c3)OCO4)ccc2O[C@@H](C)CCCCO[C@H]1CN(C)C(=O)Nc1ccc(C(F)(F)F)cc1` . Reported reporter increase?
Result: 0.715
